Reference source for all entries: paper PMC8555766

# TARGET_SYSTEM: ASIC3 G445C (Rattus norvegicus, UniProt O35240, G445C)
# Construct: rASIC3 G445C co-expressed with wildtype ASIC3 at a 10:1 ratio in CHO-K1 cells; with wildtype ASIC3 (heteromultimeric channels)
# Sequence (O35240 whole entry G445C): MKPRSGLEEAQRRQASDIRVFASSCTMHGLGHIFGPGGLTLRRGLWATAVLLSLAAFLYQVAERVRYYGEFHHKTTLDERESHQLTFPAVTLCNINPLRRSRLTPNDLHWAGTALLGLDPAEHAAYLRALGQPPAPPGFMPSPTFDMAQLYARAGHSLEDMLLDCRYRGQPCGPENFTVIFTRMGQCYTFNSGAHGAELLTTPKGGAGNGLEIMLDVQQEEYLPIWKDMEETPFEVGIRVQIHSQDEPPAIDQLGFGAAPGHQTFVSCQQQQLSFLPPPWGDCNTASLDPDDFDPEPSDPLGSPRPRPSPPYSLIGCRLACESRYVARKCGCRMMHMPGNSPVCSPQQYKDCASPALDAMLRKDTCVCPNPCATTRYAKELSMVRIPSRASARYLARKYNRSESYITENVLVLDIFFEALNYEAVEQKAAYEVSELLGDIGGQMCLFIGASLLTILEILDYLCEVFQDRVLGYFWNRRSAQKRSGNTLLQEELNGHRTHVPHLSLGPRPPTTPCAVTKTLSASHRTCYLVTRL
# METHOD: whole-cell patch clamp, block of pH 6-evoked currents
OBSERVATION_TYPE: IC50 (µM)
Expressed in µM, but write only the number.

Requested read-out: IC50. Entry: N=C(N)NC(=O)c1nc(Cl)c(N)nc1N [amiloride] 17.3

###

# TARGET_SYSTEM: Acid-Sensing Ion Channel 3 (ASIC3) (Rattus norvegicus, UniProt O35240)
# Construct: Rat ASIC3 in pMT3 vector, expressed in CHO-K1 cells
# METHOD: whole-cell patch clamp, block of pH 6-evoked currents
OBSERVATION_TYPE: IC50 (µM)
Lab book: enter the figure in µM, no units written.

Give its IC50 value. Item: N=C(N)NC(=O)c1nc(Cl)c(N)nc1N [amiloride] 18.6
